Tested on: Cryptococcus neoformans
test: Antifungal activity against Cryptococcus neoformans assessed as lowest concentration required for total inhibition by broth dilution assay
Type: functional
condition.info: read-out: MIC100
Please respond with reported MIC for every item in the list.
Express it in µg/mL; write the number only.

Problem: Please look up its MIC: CC(C)(C)c1ccc(C(=O)OC(Cn2ccnc2)c2ccc(Cl)cc2Cl)cc1.O=C(O)C(=O)O (configuration not stated)
Solution: 3

Problem: Please look up its MIC: CCCCCC(=O)SC(Cn1ccnc1)c1ccc(Cl)cc1Cl.O=[N+]([O-])O (configuration not stated)
Solution: 1

Problem: Please look up its MIC: O=C(OC(Cn1ccnc1)c1ccc(Cl)cc1Cl)c1ccc(Cl)cc1.O=[N+]([O-])O (configuration not stated)
Solution: 3

Problem: Please look up its MIC: CCCCCCC(=O)OC(Cn1ccnc1)c1ccc(Cl)cc1Cl.O=[N+]([O-])O (configuration not stated)
Solution: 3

Problem: Please look up its MIC: CC(=O)SC(Cn1ccnc1)c1ccc(Cl)cc1Cl.O=[N+]([O-])O (configuration not stated)
Solution: 10

###

Please respond with reported deltaRm for every item in the list.
test: Lipophilic-hydrophilic balance, Rm of the compound assessed as change in compound Rm to miconazole Rm by reverse-phase TLC method
Type: physicochemical
condition.info: silicone oil-impregnated silica gel, MeCN-H2O-AcOH
Just the number.

Problem: Please look up its deltaRm: CCCCCC(=O)SC(Cn1ccnc1)c1ccc(Cl)cc1Cl.O=[N+]([O-])O (stereo unspecified)
Solution: -0.05

Problem: Please look up its deltaRm: CC(C)(C)SC(=O)SC(Cn1ccnc1)c1ccc(Cl)cc1Cl.O=[N+]([O-])O (stereo unspecified)
Solution: 0.05

Problem: Please look up its deltaRm: O=C(O)C(=O)O.O=C(OC(Cn1ccnc1)c1ccc(Cl)cc1)c1ccccc1Cl (stereo unspecified)
Solution: -0.49

Problem: Please look up its deltaRm: CCCCCCCCOC(=O)SC(Cn1ccnc1)c1ccc(Cl)cc1Cl.O=[N+]([O-])O (stereo unspecified)
Solution: 0.82

Problem: Please look up its deltaRm: O=[N+]([O-])O.S=C(OC1CCCCC1)SC(Cn1ccnc1)c1ccc(Cl)cc1Cl (stereo unspecified)
Solution: 0.43

Problem: Please look up its deltaRm: CCCCCCCC(=O)OC(Cn1ccnc1)c1ccc(Cl)cc1Cl.O=[N+]([O-])O (stereo unspecified)
Solution: 0.1

Problem: Please look up its deltaRm: O=C(Cc1ccccc1)SC(Cn1ccnc1)c1ccc(Cl)cc1Cl.O=[N+]([O-])O (stereo unspecified)
Solution: -0.43

Problem: Please look up its deltaRm: CC(C)(C)c1ccc(C(=O)OC(Cn2ccnc2)c2ccc(Cl)cc2Cl)cc1.O=C(O)C(=O)O (stereo unspecified)
Solution: 0.16

Problem: Please look up its deltaRm: O=C(Cc1ccc(Cl)cc1)OC(Cn1ccnc1)c1ccc(Cl)cc1Cl.O=[N+]([O-])O (stereo unspecified)
Solution: -0.41

Problem: Please look up its deltaRm: O=C(OC(Cn1ccnc1)c1ccc(Cl)cc1Cl)c1ccc(Cl)cc1Cl.O=[N+]([O-])O (stereo unspecified)
Solution: -0.24

Problem: Please look up its deltaRm: O=C(O)C(=O)O.O=C(Oc1ccc(Cl)cc1)OC(Cn1ccnc1)c1ccc(Cl)cc1 (stereo unspecified)
Solution: -0.52

Problem: Please look up its deltaRm: O=C(/C=C/c1ccccc1)SC(Cn1ccnc1)c1ccc(Cl)cc1Cl.O=[N+]([O-])O (stereo unspecified)
Solution: -0.08

Problem: Please look up its deltaRm: CCCOC(=S)SC(Cn1ccnc1)c1ccc(Cl)cc1Cl.O=[N+]([O-])O (stereo unspecified)
Solution: -0.03

Problem: Please look up its deltaRm: CCCCCOC(=S)SC(Cn1ccnc1)c1ccc(Cl)cc1.O=C(O)C(=O)O (stereo unspecified)
Solution: 0.22

Problem: Please look up its deltaRm: O=C(OC(Cn1ccnc1)c1ccc(Cl)cc1Cl)c1ccc(Cl)cc1.O=[N+]([O-])O (stereo unspecified)
Solution: -0.39

Problem: Please look up its deltaRm: CCOC(=S)SC(Cn1ccnc1)c1ccc(Cl)cc1Cl.O=[N+]([O-])O (stereo unspecified)
Solution: -0.27

Problem: Please look up its deltaRm: CCCCCCCCCCCC(=O)OC(Cn1ccnc1)c1ccc(Cl)cc1Cl.O=[N+]([O-])O (stereo unspecified)
Solution: 1.1

Problem: Please look up its deltaRm: O=C(O)C(=O)O.O=C(OC(Cn1ccnc1)c1ccc(Cl)cc1Cl)c1ccc([N+](=O)[O-])cc1 (stereo unspecified)
Solution: -0.54

Problem: Please look up its deltaRm: CCCCCCCCOC(=S)SC(Cn1ccnc1)c1ccc(Cl)cc1Cl.O=[N+]([O-])O (stereo unspecified)
Solution: 1.23

Problem: Please look up its deltaRm: CCCCOC(=O)SC(Cn1ccnc1)c1ccc(Cl)cc1Cl.O=[N+]([O-])O (stereo unspecified)
Solution: -0.14

Problem: Please look up its deltaRm: CCCCCCCCOC(=O)OC(Cn1ccnc1)c1ccc(Cl)cc1Cl.O=[N+]([O-])O (stereo unspecified)
Solution: 0.4

Problem: Please look up its deltaRm: CCCCCCCC(=O)SC(Cn1ccnc1)c1ccc(Cl)cc1Cl.O=C(O)C(=O)O (stereo unspecified)
Solution: 0.44

Problem: Please look up its deltaRm: Clc1ccc(COC(Cn2ccnc2)c2ccc(Cl)cc2Cl)c(Cl)c1 (stereo unspecified) [MICONAZOLE]
Solution: 0

Problem: Please look up its deltaRm: CC(C)COC(=S)SC(Cn1ccnc1)c1ccc(Cl)cc1Cl.O=[N+]([O-])O (stereo unspecified)
Solution: 0.17

Problem: Please look up its deltaRm: CCCCCCOC(=O)OC(Cn1ccnc1)c1ccc(Cl)cc1Cl.O=[N+]([O-])O (stereo unspecified)
Solution: -0.17

Problem: Please look up its deltaRm: O=C(SC(Cn1ccnc1)c1ccc(Cl)cc1Cl)c1ccccc1Cl.O=[N+]([O-])O (stereo unspecified)
Solution: -0.35
